EXPERIMENT DESCRIPTION: ATG_RORE_CIS: Attagene CIS-FACTORIAL HepG2 Assay for human RAR-related Orphan Receptor Element (RORE) (AID 2282959)
EXPERIMENTAL SETUP: HepG2 Attagene cis-factorial RORE reporter, mRNA; actives raise or lower the signal
Activity calls are given as the source filed them. The calls were made as follows: active = hit-call score of the fitted dose curve at least 0.9, where 1 is the maximum; inactive = score below 0.9.
Give your call using only these classes: active, inactive

Assay result, entry CC(C)c1ccccc1O — outcome? inactive

Assay result, entry Nc1ccc(Cl)c([N+](=O)[O-])c1 — outcome? inactive

Assay result, entry CCC(Cl)C(Cl)C(Cl)CC(Cl)C(Cl)C(C)Cl (stereo not drawn) — outcome? inactive

Assay result, entry COc1ccc(CCC(C)=O)cc1 — outcome? inactive

Assay result, entry O=[N+]([O-])c1ccc(O)cc1C(F)(F)F — outcome? active

Assay result, entry Nc1ccc2c(O)cc(S(=O)(=O)O)cc2c1 — outcome? inactive

Assay result, entry CC=CC=CCOC(=O)C(C)C — outcome? inactive

Assay result, entry CCCCCCCCc1ccc(S(=O)(=O)O)cc1 — outcome? inactive

Assay result, entry CCN(CC)C(=O)N(CC)CC — outcome? inactive
